Target: PTP1B (Homo sapiens)
Sequence (P18031 whole entry): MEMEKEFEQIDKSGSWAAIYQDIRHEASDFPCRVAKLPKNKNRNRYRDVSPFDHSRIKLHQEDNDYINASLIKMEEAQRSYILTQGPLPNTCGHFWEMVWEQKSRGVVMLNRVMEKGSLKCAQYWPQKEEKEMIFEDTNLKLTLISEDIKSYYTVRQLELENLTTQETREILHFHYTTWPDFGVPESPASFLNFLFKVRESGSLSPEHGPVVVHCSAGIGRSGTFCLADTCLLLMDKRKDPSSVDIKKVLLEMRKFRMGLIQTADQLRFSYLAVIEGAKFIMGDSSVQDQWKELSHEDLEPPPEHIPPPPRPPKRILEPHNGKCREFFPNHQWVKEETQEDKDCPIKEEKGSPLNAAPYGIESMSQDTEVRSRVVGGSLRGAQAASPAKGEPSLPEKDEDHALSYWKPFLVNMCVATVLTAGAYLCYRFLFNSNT
Assay: Degradation assay in HEK293 cells (immunoblotting)
Assay type: cell-based
Set-up: Degradation assay was conducted in HEK293 cells with 1 μM degrader and 24 hours incubation; endogenous in cells; host or cells: HEK293
Conditions: 1 μM degrader, 24 hours
Description: HEK293. MIAPaCa-2, HepG2, U2OS, H116, MEF, B16F10, and MC38 cells, were grown in DMEM, while Jurkat and H358 cells were grown in RPMI 1640 supplemented with 10% fetal bovine serum, penicillin (50 units/mL), and streptomycin (50 μg/mL) in a 37° C. incubator containing 5% CO2. 20 ng/ml human (Biolegend #713906) or mouse (Biolegend #714006) Interferon-γ were used for JAK/STAT pathway stimulation. […]
Where a SMILES comes first, the peptide text is derived from it. [ ]: non-standard residue; d: D form. The star is where a group is joined. NHBn(4-(4-Me-thiazol-5-yl)) = Cc1ncsc1-c1ccc(CN*)cc1; F2Pmp = N[C@@H](Cc1ccc(C(F)(F)P(=O)(O)O)cc1)C(=O)O; Phenylacetyl(4-OH,3-OMe) = COc1cc(CC(=O)*)ccc1O; Benzoyl(3-Br,4-Me) = Cc1ccc(C(=O)*)cc1Br; Hyp = O=C(O)[C@@H]1C[C@@H](O)CN1; dHyp = O=C(O)[C@H]1C[C@H](O)CN1; dTle = CC(C)(C)[C@@H](N)C(=O)O; Tle = CC(C)(C)[C@H](N)C(=O)O; 12Ado = NCCCCCCCCCCCC(=O)O; Ahx = NCCCCCC(=O)O; Ava = NCCCCC(=O)O
Entries and their measured % Protein Degradation PTP1B follow.
Output spec: scalar in %, unitless text.

// query Need % Protein Degradation PTP1B of COc1cc(CC(=O)N[C@@H](Cc2ccccc2)C(=O)N[C@@H](Cc2ccc(C(F)(F)P(=O)(O)O)cc2)C(=O)N[C@@H](CCCCNC(=O)c2ccc(C)c(Br)c2)C(=O)NCCCCC(=O)N[C@@H](C(=O)N2C[C@@H](O)C[C@@H]2C(=O)NCc2ccc(-c3scnc3C)cc2)C(C)(C)C)ccc1O [Compound 6] ({Phenylacetyl(4-OH,3-OMe)}-F[F2Pmp]K(Benzoyl(3-Br,4-Me))[Ava][dTle][dHyp]-{NHBn(4-(4-Me-thiazol-5-yl))}) , thanks.
// result 53

// query Moving on to the next compound: COc1cc(CC(=O)N[C@@H](Cc2ccccc2)C(=O)N[C@@H](Cc2ccc(C(F)(F)P(=O)(O)O)cc2)C(=O)N[C@@H](CCCCNC(=O)c2ccc(C)c(Br)c2)C(=O)NCCCCCCCCCCCC(=O)N[C@H](C(=O)N2C[C@H](O)C[C@H]2C(=O)NCc2ccc(-c3scnc3C)cc2)C(C)(C)C)ccc1O [Compound 18] ({Phenylacetyl(4-OH,3-OMe)}-F[F2Pmp]K(Benzoyl(3-Br,4-Me))[12Ado][Tle][Hyp]-{NHBn(4-(4-Me-thiazol-5-yl))})
// result 29

// query What would you report for COc1cc(CC(=O)N[C@@H](Cc2ccccc2)C(=O)N[C@@H](Cc2ccc(C(F)(F)P(=O)(O)O)cc2)C(=O)N[C@@H](CCCCNC(=O)c2ccc(C)c(Br)c2)C(=O)NCCCCCC(=O)N[C@H](C(=O)N2C[C@H](O)C[C@H]2C(=O)NCc2ccc(-c3scnc3C)cc2)C(C)(C)C)ccc1O [Compound 8] ({Phenylacetyl(4-OH,3-OMe)}-F[F2Pmp]K(Benzoyl(3-Br,4-Me))[Ahx][Tle][Hyp]-{NHBn(4-(4-Me-thiazol-5-yl))}) ?
// result 81
